B1: glmS ribozyme (parent)
chain: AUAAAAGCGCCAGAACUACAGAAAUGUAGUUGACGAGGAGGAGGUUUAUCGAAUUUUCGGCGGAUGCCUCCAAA

Variants of: B1
protocol: self-cleavage kobs at 160 uM GlcN6P; higher = faster cleavage; RNA array
condition: with glucosamine-6-phosphate
Variants at the floor of the assay were thinned out.
Entries annotated with measured self-cleavage kobs at 160 uM GlcN6P

Example entries begin here.
> print(dat)
                     mutant.code        result
1       G32U C34A G40C U57A G62U   < 1e-05 s⁻¹
2            C50A G51C U55C G60U   < 1e-05 s⁻¹
3                 U46C A53G U54C  0.000138 s⁻¹
4                      U55G G60C   < 1e-05 s⁻¹
5  C10G G29C C50G C58G A64U C70A  0.000119 s⁻¹
6                      A42G U69A  0.000231 s⁻¹

Moving on to another variant below.
What the record says about A12G G40A C61U : self-cleavage kobs at 160 uM GlcN6P is < 1e-05 s⁻¹

// provenance: the supplement of paper PMC7125110
